Provenance of the data: patent US20170166894A1

Target System: IL-23 (p40/p19 heterodimer), recombinant human (Homo sapiens, UniProt P29460;Q9NPF7 SEQ:23-328,SEQ:20-189)
Sequence (P29460 23-328, chain 1 of 2): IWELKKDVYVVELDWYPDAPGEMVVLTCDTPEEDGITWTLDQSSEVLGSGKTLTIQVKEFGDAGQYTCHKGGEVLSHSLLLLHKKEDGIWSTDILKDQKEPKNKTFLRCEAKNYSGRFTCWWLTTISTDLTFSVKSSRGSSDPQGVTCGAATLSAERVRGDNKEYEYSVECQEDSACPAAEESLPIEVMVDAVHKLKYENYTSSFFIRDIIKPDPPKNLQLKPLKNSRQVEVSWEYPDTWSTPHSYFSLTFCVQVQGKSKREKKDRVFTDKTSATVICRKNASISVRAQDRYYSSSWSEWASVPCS
Sequence (Q9NPF7 20-189, chain 2 of 2): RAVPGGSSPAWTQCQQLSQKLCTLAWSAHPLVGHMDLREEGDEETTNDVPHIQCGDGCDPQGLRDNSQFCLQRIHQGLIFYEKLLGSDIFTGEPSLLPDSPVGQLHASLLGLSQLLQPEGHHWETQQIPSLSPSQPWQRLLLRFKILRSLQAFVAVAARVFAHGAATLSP
Assay Procedure: in presence of competitor tRNA (18,000-fold excess)
Condition Context: tags: R&D Systems 1290-IL-010/CF (catalogue number stated for the selection)
Endpoint Label: Kd (nM)
Give your result in nM as a bare value.

### Prompt # get_value(readout='Kd', item= ARC20122 (ssRNA, 2'-OMe A and G, 2'-F C and U (mA,mG,fC,fU)) RNA: GGAGGGAAAAGUUAUCAGGCUUCUAUCGGGCGCCGCGUUUUCCCUGUGUUAGCCAUCGUCCGACGAGUAGGCUAGUCUGAUGCC )
### Response 9.1
